src = patent EP0713876A1

Subject of test: rat mast cell chymase (Rattus norvegicus, UniProt P09650)
Construct: Chymase was partially purified from rat peritoneal cavity mast cells; from tissue; host or cells: peritoneal cavity mast cells of male Sprague Dawley rats
Sequence (P09650 21-260): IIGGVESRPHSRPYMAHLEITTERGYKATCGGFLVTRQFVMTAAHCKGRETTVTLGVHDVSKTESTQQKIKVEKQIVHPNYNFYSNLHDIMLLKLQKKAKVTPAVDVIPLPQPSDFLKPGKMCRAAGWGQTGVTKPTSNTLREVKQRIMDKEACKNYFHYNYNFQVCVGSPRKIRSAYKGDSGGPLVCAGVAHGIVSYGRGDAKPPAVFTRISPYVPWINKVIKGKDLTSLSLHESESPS
Assay remarks: Inhibition of chymase activity (chromogenic substrate N-Suc-Ala-Ala-Pro-Phe-p-nitroanilide)
Type: biochemical
Test parameters: 10⁻⁵ M test compound
Marks after values point to notes of the source that are not given here.
Exercise: state measured Inhibition (%) of chymase at a concentration of 10⁻⁵ M for each of the compounds provided.

Reference set, count: 3
Compound	Result
[O-][S+](CCCCl)c1nnc(OCCCCl)c2nccn12 (stereo not shown) [Example 51]	50% *
CCOC(=O)COc1nnc([S+]([O-])CC(=O)OCC)n2ccnc12 (stereo not shown) [Example 52]	39% *
[O-][S+](Cc1ccc(C(F)(F)F)cc1)c1nnc(OCc2ccc(C(F)(F)F)cc2)c2nccn12 (stereo not shown) [Example 42]	11%*

For the 4 compounds below, give their Inhibition (%) of chymase at a concentration of 10⁻⁵ M values.
1. CCn1nc([S+]([O-])CC)n2cnc(C)c2c1=O (stereo not shown) [Example 56]
2. CCOc1nnc([S+]([O-])CC)n2cnc(C)c12 (stereo not shown) [Example 55]
3. CCOc1nnc([S+]([O-])CC)n2ccnc12 (stereo not shown) [Example 46]
4. CC(C)c1ccc(COc2nnc([S+]([O-])Cc3ccc(C(C)C)cc3)n3ccnc23)cc1 (stereo not shown) [Example 38]

1. 8% *
2. 22% *
3. 5 % *
4. 41% *
